# target_entity: T1, human Protein S (human, UniProt P07225 42-676)
# T1 construct: also called ProS; ProS1
# T1 sequence: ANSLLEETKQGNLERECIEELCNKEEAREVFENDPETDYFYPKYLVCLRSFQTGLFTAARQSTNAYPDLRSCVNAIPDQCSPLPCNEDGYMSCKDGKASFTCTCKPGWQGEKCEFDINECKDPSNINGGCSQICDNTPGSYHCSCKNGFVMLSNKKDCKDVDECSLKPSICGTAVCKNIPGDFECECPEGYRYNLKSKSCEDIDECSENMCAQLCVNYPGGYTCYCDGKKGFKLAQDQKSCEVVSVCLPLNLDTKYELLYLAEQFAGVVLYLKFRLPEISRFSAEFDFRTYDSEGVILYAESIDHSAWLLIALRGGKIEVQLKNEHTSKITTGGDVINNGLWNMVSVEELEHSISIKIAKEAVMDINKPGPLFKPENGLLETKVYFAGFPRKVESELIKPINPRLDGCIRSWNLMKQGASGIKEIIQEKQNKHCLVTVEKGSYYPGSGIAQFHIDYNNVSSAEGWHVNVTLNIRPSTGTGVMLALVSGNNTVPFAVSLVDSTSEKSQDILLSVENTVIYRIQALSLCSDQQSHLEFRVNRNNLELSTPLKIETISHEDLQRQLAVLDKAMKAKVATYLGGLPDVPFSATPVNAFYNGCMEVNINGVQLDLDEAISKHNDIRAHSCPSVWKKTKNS
# test: BLI Octet; antibody on anti-human Fc probe; Protein S 7.81-500 nM; 4 mM CaCl2

{"binder": "Antibody 11 (antibody, V domains shown, Same variable regions as Antibody 23) VH: QVQLVQSGAEVKKPGASVKVSCKSSGHTFTGYYMHWVRQAPGQGLEWMGWINPNSGDTNYAQKFQGRVTMTRDTSISTAYMEMSRLRSDDTAVYYCARDSQILWFGELGYWGQGTLVTVSS VL: QAVVTQESALTTSPGETVTLTCRSSTGAVTASNYANWVQEKPDHLFTGLIGSTNNRAPGVPARFSGSLIGDKAALTITGAQTEDEAIYFCALWYSDHFVFGGGTKLTVL", "value_unit": "M⁻¹ s⁻¹", "kon": 85200}
{"binder": "Antibody 25 (antibody, V domains shown, Same variable regions as Antibody 31) VH: QVQLQESGPGLVKPSETLSLTCTVSGGSISGNYWSWIRQPPGKGLEWIGYIYYSGSTNYNPSLKSRVTISVDTSKNQFSLKLSSVTAADTAVYYCARDLDYFTWGAYSDWYFDLWGRGTLVTVSS VL: DIQMTQSPSSLSASVGDRVTITCRASQSISTFLNWYQQKPGKAPKLLIYATSSLRSGVPSRFSGSGSGTDFTLTISSLQPEDFAIYYCQQSYSTPRTFGQGTQVEIK", "value_unit": "M⁻¹ s⁻¹", "kon": 143000}
{"binder": "Antibody 29 (antibody, V domains shown, Same variable regions as Antibody 35) VH: QLQLQESGPGLVKPSETLSLTCTVSGGSITNSNYYWGWIRQPPGKGLEWIGSVYYSGTTYYNPSLKSRVTISVDPSKNQFSLKLSSVTAADTAVYYCVRESESYYYYGSDVWGQGTTVTVSS VL: DIQMTQSPSSLSASVGDRVTITCRASQGINNYLAWFQQKPGKAPKSLIYAASSLQSGVPSKFSGSGSGTDFTLTISSLQPEDFATYYCQQYNSYPRTFGQGTKVEIK", "value_unit": "M⁻¹ s⁻¹", "kon": 81900}
{"binder": "Antibody 1 (antibody, V domains shown, Same variable regions as Antibody 13) VH: QVQLVQSGAEVKKPGSSVKVSCKVSGGTFSSYSISWVRQAPGQGLEWMGGIIPIFGTTNYAQKFQGRVTITADESTSTAYMDLSSLKSEDTAMYYCEGGRVGADFDYWGQGTLVTVSS VL: SSDLTQGPAVSVALGQTVRITCQGDSLRNYYASWYQQKPGQAPVPVIYGKNDRPSGIPDRFSGSISGNTASLTITGAQAEDEAHYYCNSRDSSGNHVVFGGGTKLTVL", "value_unit": "M⁻¹ s⁻¹", "kon": 169000}
